For each record, write down the corresponding PBM binding z-score.
test system: RARg homodimer (NR concentration 270 nM); assay: PBM binding z-score (relative to random genomic background probes); higher = stronger binding; sequences stand for … in GC…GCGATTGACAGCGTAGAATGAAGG
Number only, no unit.

stdin: Sample "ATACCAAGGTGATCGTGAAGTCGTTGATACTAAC" — what was its PBM binding z-score?
stdout: 0.171

stdin: Sample "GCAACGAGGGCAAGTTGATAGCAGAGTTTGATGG" — what was its PBM binding z-score?
stdout: 1.77

stdin: Sample "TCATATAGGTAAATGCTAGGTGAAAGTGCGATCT" — what was its PBM binding z-score?
stdout: 0.488

stdin: Sample "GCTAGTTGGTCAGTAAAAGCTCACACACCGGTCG" — what was its PBM binding z-score?
stdout: 0.0188

stdin: Sample "TCGAGTAGGTTAGTCGTGGCATTCAGCCAACATA" — what was its PBM binding z-score?
stdout: -0.451

stdin: Sample "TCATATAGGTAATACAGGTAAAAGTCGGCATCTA" — what was its PBM binding z-score?
stdout: 0.536

stdin: Sample "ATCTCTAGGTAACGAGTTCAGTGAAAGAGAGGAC" — what was its PBM binding z-score?
stdout: 1.07

stdin: Sample "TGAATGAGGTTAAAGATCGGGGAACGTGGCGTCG" — what was its PBM binding z-score?
stdout: 1.24

stdin: Sample "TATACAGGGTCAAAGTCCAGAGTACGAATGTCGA" — what was its PBM binding z-score?
stdout: 4.9

stdin: Sample "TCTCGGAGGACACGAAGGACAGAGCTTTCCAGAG" — what was its PBM binding z-score?
stdout: 1.75

stdin: Sample "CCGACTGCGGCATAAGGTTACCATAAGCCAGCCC" — what was its PBM binding z-score?
stdout: 0.391

stdin: Sample "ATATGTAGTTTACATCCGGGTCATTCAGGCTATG" — what was its PBM binding z-score?
stdout: 1.44

stdin: Sample "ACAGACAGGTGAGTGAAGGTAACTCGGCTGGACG" — what was its PBM binding z-score?
stdout: 0.044

stdin: Sample "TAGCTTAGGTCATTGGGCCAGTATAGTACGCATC" — what was its PBM binding z-score?
stdout: 4.56

stdin: Sample "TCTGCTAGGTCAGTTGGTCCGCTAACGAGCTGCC" — what was its PBM binding z-score?
stdout: 2.93

stdin: Sample "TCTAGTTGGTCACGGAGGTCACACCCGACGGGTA" — what was its PBM binding z-score?
stdout: 4.61

stdin: Sample "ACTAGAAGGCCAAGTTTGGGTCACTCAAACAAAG" — what was its PBM binding z-score?
stdout: 2.36

stdin: Sample "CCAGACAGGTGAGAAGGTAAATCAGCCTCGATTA" — what was its PBM binding z-score?
stdout: 0.353

stdin: Sample "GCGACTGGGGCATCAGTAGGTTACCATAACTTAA" — what was its PBM binding z-score?
stdout: 0.519

stdin: Sample "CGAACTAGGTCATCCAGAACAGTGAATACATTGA" — what was its PBM binding z-score?
stdout: 4.69

stdin: Sample "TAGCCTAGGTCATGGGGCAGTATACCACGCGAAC" — what was its PBM binding z-score?
stdout: 4.2

stdin: Sample "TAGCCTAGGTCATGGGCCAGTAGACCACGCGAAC" — what was its PBM binding z-score?
stdout: 4.33

stdin: Sample "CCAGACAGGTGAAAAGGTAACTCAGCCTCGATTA" — what was its PBM binding z-score?
stdout: 0.973

stdin: Sample "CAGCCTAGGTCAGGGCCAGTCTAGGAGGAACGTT" — what was its PBM binding z-score?
stdout: 3.7

stdin: Sample "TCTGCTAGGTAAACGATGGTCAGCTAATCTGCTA" — what was its PBM binding z-score?
stdout: -0.441

stdin: Sample "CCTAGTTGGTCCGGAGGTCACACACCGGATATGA" — what was its PBM binding z-score?
stdout: 3.68
